B1: GST-SHARPIN^WT [not stated] / recombinant RNF31 [not stated] (parent complex)
chain 1: MAPPAGGAAAAASDLGSAAVLLAVHAAVRPLGAGPDAEAQLRRLQLSADPERPGRFRLELLGAGPGAVNLEWPLESVSYTIRGPTQHELQPPPGGPGTLSLHFLNPQEAQRWAVLVRGATVEGQNGSKSNSPPALGPEACPVSLPSPPEASTLKGPPPEADLPRSPGNLTEREELAGSLARAIAGGDEKGAAQVAAVLAQHRVALSVQLQEACFPPGPIRLQVTLEDAASAASAASSAHVALQVHPHCTVAALQEQVFSELGFPPAVQRWVIGRCLCVPERSLASYGVRQDGDPAFLYLLSAPREAPATGPSPQHPQKMDGELGRLFPPSLGLPPGPQPAASSLPSPLQPSWSCPSCTFINAPDRPGCEMCSTQRPCTWDPLAAAST
chain 2: MPGEEEERAFLVAREELASALRRDSGQAFSLEQLRPLLASSLPLAARYLQLDAARLVRCNAHGEPRNYLNTLSTALNILEKYGRNLLSPQRPRYWRGVKFNNPVFRSTVDAVQGGRDVLRLYGYTEEQPDGLSFPEGQEEPDEHQVATVTLEVLLLRTELSLLLQNTHPRQQALEQLLEDKVEDDMLQLSEFDPLLREIAPGPLTTPSVPGSTPGPCFLCGSAPGTLHCPSCKQALCPACDHLFHGHPSRAHHLRQTLPGVLQGTHLSPSLPASAQPRPQSTSLLALGDSSLSSPNPASAHLPWHCAACAMLNEPWAVLCVACDRPRGCKGLGLGTEGPQGTGGLEPDLARGRWACQSCTFENEAAAVLCSICERPRLAQPPSLVVDSRDAGICLQPLQQGDALLASAQSQVWYCIHCTFCNSSPGWVCVMCNRTSSPIPAQHAPRPYASSLEKGPPKPGPPRRLSAPLPSSCGDPEKQRQDKMREEGLQLVSMIREGEAAGACPEEIFSALQYSGTEVPLQWLRSELPYVLEMVAELAGQQDPGLGAFSCQEARRAWLDRHGNLDEAVEECVRTRRRKVQELQSLGFGPEEGSLQALFQHGGDVSRALTELQRQRLEPFRQRLWDSGPEPTPSWDGPDKQSLVRRLLAVYALPSWGRAELALSLLQETPRNYELGDVVEAVRHSQDRAFLRRLLAQECAVCGWALPHNRMQALTSCECTICPDCFRQHFTIALKEKHITDMVCPACGRPDLTDDTQLLSYFSTLDIQLRESLEPDAYALFHKKLTEGVLMRDPKFLWCAQCSFGFIYEREQLEATCPQCHQTFCVRCKRQWEEQHRGRSCEDFQNWKRMNDPEYQAQGLAMYLQENGIDCPKCKFSYALARGGCMHFHCTQCRHQFCSGCYNAFYAKNKCPEPNCRVKKSLHGHHPRDCLFYLRDWTALRLQKLLQDNNVMFNTEPPAGARAVPGGGCRVIEQKEVPNGLRDEACGKETPAGYAGLCQAHYKEYLVSLINAHSLDPATLYEVEELETATERYLHVRPQPLAGEDPPAYQARLLQKLTEEVPLGQSIPRRRK

- Variants of: B1
- run.description: ELISA-based binding assay; n = 3; parent: 1; read off a plot
Give response for every item shown.

chain 1 I272A; ~0.45 Abs 450nm
chain 1 L261A, chain 1 F263A; ~0.7 Abs 450nm
chain 1 L276A; ~0.49 Abs 450nm

Okay, next one:
Returns the measured response for the input variant. Input: chain 1 V267A
~0.69 Abs 450nm

All values here come from paper PMC4658161.
